# Test system: polyclonal antibodies (antiserum raised to Immunogen II), detecting agent Hapten 1-HRP
# test-details: Biochip competitive immunoassay (antibody characterisation, cross-reactivity)
# Format: binding, sheep
# condition-summary: detecting agent derived from Hapten-1, competitive assay format
assay-readout: IC50 (µg/mL)

compound="c1ccc(CN2CCNCC2)cc1 [1-Benzylpiperazine, 1-benzylpiperazine]" unit_annotation=µg/mL quantitative_readout=0.0014
compound="Oc1ccc(CN2CCNCC2)cc1 [4-OH Benzylpiperazine, 4-OH benzylpiperazine]" unit_annotation=µg/mL quantitative_readout=0.0008
compound="c1ccc(N2CCNCC2)cc1 [1-Phenylpiperazine]" unit_annotation=µg/mL quantitative_readout=0.0412
compound="FC(F)(F)c1cccc(N2CCNCC2)c1 [1-(3-Trifluoromethylphenyl)piperazine]" unit_annotation=µg/mL quantitative_readout=0.0737
